Molecular target: Q46 protein aggregates (Homo sapiens, UniProt P42858)
Construct: fused on or other part: GST at the N-terminus, cut off with thrombin before the test to start aggregation; The wells held aggregated Q46 without GST
Sequence (P42858 with tags, fused parts or gaps with the stated changes, form open): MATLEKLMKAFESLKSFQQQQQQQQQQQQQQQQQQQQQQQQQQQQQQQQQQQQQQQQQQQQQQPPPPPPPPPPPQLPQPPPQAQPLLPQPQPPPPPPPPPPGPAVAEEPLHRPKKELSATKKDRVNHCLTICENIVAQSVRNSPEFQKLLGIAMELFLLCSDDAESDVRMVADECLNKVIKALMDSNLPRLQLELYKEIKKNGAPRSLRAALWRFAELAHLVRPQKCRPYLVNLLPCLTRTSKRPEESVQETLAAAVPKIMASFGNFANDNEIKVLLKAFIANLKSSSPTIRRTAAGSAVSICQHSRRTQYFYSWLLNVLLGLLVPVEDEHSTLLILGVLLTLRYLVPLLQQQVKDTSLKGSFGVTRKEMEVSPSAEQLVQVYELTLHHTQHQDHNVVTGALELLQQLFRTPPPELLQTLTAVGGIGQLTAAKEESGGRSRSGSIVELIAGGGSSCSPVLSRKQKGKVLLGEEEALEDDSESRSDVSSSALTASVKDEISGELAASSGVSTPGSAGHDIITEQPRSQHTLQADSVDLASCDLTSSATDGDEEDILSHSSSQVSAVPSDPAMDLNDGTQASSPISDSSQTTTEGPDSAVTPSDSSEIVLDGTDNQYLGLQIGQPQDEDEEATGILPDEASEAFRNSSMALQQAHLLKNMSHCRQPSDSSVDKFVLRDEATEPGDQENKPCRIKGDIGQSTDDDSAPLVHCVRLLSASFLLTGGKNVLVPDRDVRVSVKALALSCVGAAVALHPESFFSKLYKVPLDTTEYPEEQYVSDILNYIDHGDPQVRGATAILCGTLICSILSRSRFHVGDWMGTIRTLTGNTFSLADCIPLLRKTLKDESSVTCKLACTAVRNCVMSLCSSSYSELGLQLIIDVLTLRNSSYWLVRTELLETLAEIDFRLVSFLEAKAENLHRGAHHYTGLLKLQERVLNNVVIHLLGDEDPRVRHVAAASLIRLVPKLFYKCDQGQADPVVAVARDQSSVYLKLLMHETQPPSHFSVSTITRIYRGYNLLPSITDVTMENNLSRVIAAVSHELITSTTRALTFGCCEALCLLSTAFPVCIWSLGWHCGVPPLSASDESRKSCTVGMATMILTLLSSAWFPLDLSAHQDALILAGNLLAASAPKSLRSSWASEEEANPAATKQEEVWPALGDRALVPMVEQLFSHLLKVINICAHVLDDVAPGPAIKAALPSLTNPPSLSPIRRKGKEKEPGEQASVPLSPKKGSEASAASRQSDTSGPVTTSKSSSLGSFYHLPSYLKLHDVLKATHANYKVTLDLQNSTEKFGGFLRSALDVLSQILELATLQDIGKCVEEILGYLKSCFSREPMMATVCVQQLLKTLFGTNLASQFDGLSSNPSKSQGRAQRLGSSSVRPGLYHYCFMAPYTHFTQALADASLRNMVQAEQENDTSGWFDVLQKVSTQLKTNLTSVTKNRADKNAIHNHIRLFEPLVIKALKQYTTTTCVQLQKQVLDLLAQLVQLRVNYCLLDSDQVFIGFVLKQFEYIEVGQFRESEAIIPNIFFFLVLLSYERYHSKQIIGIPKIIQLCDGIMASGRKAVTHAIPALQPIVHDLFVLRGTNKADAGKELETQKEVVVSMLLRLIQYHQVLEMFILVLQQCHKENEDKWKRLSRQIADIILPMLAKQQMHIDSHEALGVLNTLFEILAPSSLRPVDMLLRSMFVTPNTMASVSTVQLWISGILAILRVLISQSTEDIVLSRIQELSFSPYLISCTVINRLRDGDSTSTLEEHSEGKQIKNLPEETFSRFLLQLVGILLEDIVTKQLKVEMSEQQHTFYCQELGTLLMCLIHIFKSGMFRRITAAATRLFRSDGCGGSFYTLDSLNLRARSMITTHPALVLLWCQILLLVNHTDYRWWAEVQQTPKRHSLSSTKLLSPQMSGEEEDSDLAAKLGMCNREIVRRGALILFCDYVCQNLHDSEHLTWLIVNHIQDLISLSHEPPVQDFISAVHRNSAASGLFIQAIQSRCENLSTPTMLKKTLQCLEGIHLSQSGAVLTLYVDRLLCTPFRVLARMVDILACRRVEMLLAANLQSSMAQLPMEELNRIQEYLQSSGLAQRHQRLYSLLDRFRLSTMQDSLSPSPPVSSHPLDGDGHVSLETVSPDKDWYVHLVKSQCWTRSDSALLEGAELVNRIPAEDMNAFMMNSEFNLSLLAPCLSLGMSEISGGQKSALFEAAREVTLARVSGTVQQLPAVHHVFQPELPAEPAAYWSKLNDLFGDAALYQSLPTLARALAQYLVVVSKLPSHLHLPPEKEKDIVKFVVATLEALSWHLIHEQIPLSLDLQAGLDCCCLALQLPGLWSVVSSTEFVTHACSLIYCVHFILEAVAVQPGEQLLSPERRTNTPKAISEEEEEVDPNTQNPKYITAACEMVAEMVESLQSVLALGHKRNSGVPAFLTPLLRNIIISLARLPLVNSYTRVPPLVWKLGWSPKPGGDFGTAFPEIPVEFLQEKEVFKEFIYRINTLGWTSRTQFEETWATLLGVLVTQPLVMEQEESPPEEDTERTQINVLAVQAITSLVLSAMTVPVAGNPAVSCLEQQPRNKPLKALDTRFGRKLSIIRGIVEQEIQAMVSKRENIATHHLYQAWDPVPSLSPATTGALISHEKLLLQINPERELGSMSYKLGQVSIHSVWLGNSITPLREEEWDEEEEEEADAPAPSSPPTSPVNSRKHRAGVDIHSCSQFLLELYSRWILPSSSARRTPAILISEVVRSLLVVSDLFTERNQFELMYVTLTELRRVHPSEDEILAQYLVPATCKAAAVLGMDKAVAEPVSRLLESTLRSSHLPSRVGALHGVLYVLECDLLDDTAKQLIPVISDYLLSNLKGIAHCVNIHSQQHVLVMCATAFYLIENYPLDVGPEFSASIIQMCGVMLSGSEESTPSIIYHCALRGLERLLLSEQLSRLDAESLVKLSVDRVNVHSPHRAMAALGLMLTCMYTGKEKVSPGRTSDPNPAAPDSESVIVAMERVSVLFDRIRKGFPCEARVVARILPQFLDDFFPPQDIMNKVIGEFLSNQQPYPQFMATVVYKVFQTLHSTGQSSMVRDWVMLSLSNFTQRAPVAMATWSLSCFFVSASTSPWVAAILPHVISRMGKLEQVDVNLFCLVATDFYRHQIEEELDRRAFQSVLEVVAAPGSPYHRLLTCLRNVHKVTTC
Experiment: Q46 radioligand binding assay (RBA)
Conditions: 10 nM ligand [3H3]MK-3328
pIC50: −log10 of the molar value.
Provide the recorded pIC50 for the entries that follow.

Query string: Give the reported value of pIC50 for this record: C1=C(COc2ccc3oc(-c4cccnc4)nc3c2)N2CCN=C2S1
Result string: 6.30 to 7.00

Query string: Give the reported value of pIC50 for this record: COc1ccc(C(=O)Nc2cnc3oc(-c4cccc(C)c4)nc3c2)cc1
Result string: > 7.00

Query string: Give the reported value of pIC50 for this record: CSc1ccc(C(=O)Nc2ccc3oc(-c4cccnc4)nc3c2)cc1
Result string: > 7.00

Query string: Give the reported value of pIC50 for this record: COc1ccc(NCc2ccc3oc(-c4cccnc4)nc3c2)nc1
Result string: 6.30 to 7.00

Query string: Give the reported value of pIC50 for this record: COc1ccc(COc2ccc3oc(-c4cc5ccccc5o4)nc3c2)nc1
Result string: > 7.00

Query string: Give the reported value of pIC50 for this record: COc1ccc(-c2ccc3oc(-c4cccnc4)nc3c2)cc1
Result string: > 7.00

Query string: Give the reported value of pIC50 for this record: COc1ccc(COc2ccc3oc(-c4cccnn4)nc3c2)nc1
Result string: > 7.00

Query string: Give the reported value of pIC50 for this record: CNC(=O)c1ccc(-c2nc3cc(OCc4ccc(OC)cn4)cnc3o2)cn1
Result string: > 7.00

Query string: Give the reported value of pIC50 for this record: COc1ccc(COc2ccc3oc(-n4ccnc4)nc3c2)nc1
Result string: > 7.00

Query string: Give the reported value of pIC50 for this record: N#Cc1cnccc1-c1cc2cc(OCC3=CSC4=NCCN34)ccc2o1
Result string: > 7.00

Query string: Give the reported value of pIC50 for this record: COc1ccc(/C=C/C(=O)Nc2ccc3oc(-c4cccnc4)nc3c2)cc1
Result string: > 7.00

----------
Provide the recorded pIC50 for the entries that follow.
Biological target: Q46 protein aggregates (Homo sapiens, UniProt P42858)
Construct: fused on or other part: GST at the N-terminus, cut off with thrombin before the test to start aggregation; The wells held aggregated Q46 without GST
Assay: Q46 radioligand binding assay (RBA)
Settings: 10 nM ligand [3H3]MK-3328
pIC50: −log10 of the molar value.

Query string: Give the reported value of pIC50 for this record: COc1ccnc(C(=O)Nc2ccc3oc(-c4cccnc4)nc3c2)c1
Result string: > 7.00

Query string: Give the reported value of pIC50 for this record: COc1ccc(COc2cnc3oc(-c4cnccn4)nc3c2)nc1
Result string: > 7.00

Query string: Give the reported value of pIC50 for this record: Cn1nc(COc2cnc3oc(-c4cccnc4)nc3c2)ccc1=O
Result string: 6.30 to 7.00

Query string: Give the reported value of pIC50 for this record: O=C(Cc1ccc2oc(-c3cccnc3)nc2c1)c1ccccn1
Result string: 6.30 to 7.00

Query string: Give the reported value of pIC50 for this record: CC(=O)Oc1ccc(C(=O)Nc2ccc3oc(-c4ccc(Cl)cc4)nc3c2)cc1
Result string: > 7.00

Query string: Give the reported value of pIC50 for this record: Oc1cnc(-c2ccc3oc(-c4cccnc4)nc3c2)cn1
Result string: 6.30 to 7.00

Query string: Give the reported value of pIC50 for this record: COc1ccc(COc2ccc3oc(-c4ccnc(C)c4)nc3c2)nc1
Result string: > 7.00

Query string: Give the reported value of pIC50 for this record: O=C(Nc1ccc2oc(-c3cccnc3)nc2c1)c1cccc(Oc2ccccc2)c1
Result string: > 7.00

Query string: Give the reported value of pIC50 for this record: COc1ccc(COc2ccc3oc(-c4cn(C)cn4)nc3c2)nc1
Result string: 6.30 to 7.00

Query string: Give the reported value of pIC50 for this record: O=C(COc1ccccc1)Nc1ccc2oc(-c3cccnc3)nc2c1
Result string: > 7.00

Query string: Give the reported value of pIC50 for this record: Cn1nc(-c2nc3cc(OCc4ccc(OCCF)cn4)cnc3o2)ccc1=O
Result string: > 7.00

----------
Biological target: Q46 protein aggregates (Homo sapiens)
Construct: fused on or other part: GST at the N-terminus, cut off with thrombin before the test to start aggregation; The wells held aggregated Q46 without GST
Assay: Q46 radioligand binding assay (RBA)
Details: 10 nM ligand [3H3]MK-3328
parameter measured: IC50

Query string: Give the reported value of IC50 for this record: COc1ccc(COc2ccc3oc(-c4cnccn4)nc3c2)nc1
Result string: < 100 nM

Query string: Give the reported value of IC50 for this record: COc1ccc(COc2ccc3oc(-c4cncs4)nc3c2)nc1
Result string: < 100 nM

Query string: Give the reported value of IC50 for this record: N#Cc1ccc(C(=O)Nc2ccc3oc(-c4cccnc4)nc3c2)cc1
Result string: < 100 nM

Query string: Give the reported value of IC50 for this record: COc1ccc(C(C)Oc2cnc3oc(-c4cccnc4)nc3c2)nc1 (stereo not drawn)
Result string: 100 to 500 nM

Query string: Give the reported value of IC50 for this record: COc1ccc(COc2ccc3oc(-c4cncc(C)c4)nc3c2)nc1
Result string: < 100 nM

Query string: Give the reported value of IC50 for this record: COc1ccc(COc2ccc3oc(-c4ccc(=O)n(C)n4)nc3c2)nc1
Result string: < 100 nM

Query string: Give the reported value of IC50 for this record: O=c1cnc(COc2ccc3oc(-c4cccnc4)nc3c2)c[nH]1
Result string: 100 to 500 nM

Query string: Give the reported value of IC50 for this record: N#Cc1cnccc1-c1cc2cc(OCc3cn[nH]c3)ccc2o1
Result string: < 100 nM

Query string: Give the reported value of IC50 for this record: COc1ccc(COc2ccc3oc(-c4ccncc4)cc3c2)nc1
Result string: < 100 nM

Query string: Give the reported value of IC50 for this record: Cn1cc(COc2ccc3oc(-c4cccnc4)nc3c2)cn1
Result string: 100 to 500 nM

Query string: Give the reported value of IC50 for this record: COc1cnc(N2CCN(c3ccc4oc(-c5cccnc5)nc4c3)CC2)nc1
Result string: < 100 nM

Query string: Give the reported value of IC50 for this record: O=C(Nc1ccc2oc(-c3cccnc3)nc2c1)c1cc2ccccc2o1
Result string: < 100 nM

Values compiled from patent US12258355B2.
